# System: MDA-MB-468 breast
# Assay Overview: NCI tumour cell line growth inhibition, 48 h
Just so you know, the groups by TGI go like this: bin 1 (below 3 µM), bin 2 (3 µM to below 5 µM), bin 3 (5 µM or more)

Reference set, count: 5
Molecule: COc1ccc(N=Nc2c(N)nn3c(N)c(C#N)c(-c4ccccc4)nc23)cc1
Class Name: bin 3
--
Molecule: CCCN(CCC)c1ccc(/C=N/NC(=O)c2cccnc2)c(C)c1
Class Name: bin 3
--
Molecule: O=c1cc(-c2ccccc2)oc2cc(OCCCCNCc3ccccc3)cc(O)c12
Class Name: bin 3
--
Molecule: COc1ccc(C2c3ccc4ccccc4c3Oc3ncn(CCCn4ccnc4)c(=N)c32)cc1OC (configuration not stated)
Class Name: bin 3
--
Molecule: Cn1cnc([N+](=O)[O-])c1S(=O)(=O)Oc1ccc(Cl)cc1
Class Name: bin 2

Tag the class for CCOC(=O)c1c(NN2CCN(CC(F)(F)F)CC2)oc(/C=C2\C=Nc3ncccc32)c1O
bin 3

Tag the class for CCN1/C(=C/C(C)=C/c2sc3ccc4ccccc4c3[n+]2CC)Sc2ccc3ccccc3c21
bin 1

* * *

# Test system: MDA-MB-468 breast
# Assay Overview: NCI tumour cell line growth inhibition, 48 h
Could you label it True if measured TGI is 10 µM or higher, and False otherwise?

Reference set, count: 4
Molecule: CCOC(=O)c1ccc(N2NC(=O)/C(=C/c3ccc([N+](=O)[O-])o3)C2=O)cc1
Class Name: True

Molecule: Cc1nnn(C)c1-c1cnc2c3ccc(C(C)(C)O)cc3n([C@H](c3ccccc3)C3CCOCC3)c2c1
Class Name: False

Molecule: COc1cccc(/C=N\NC(=O)c2ccncc2)c1O
Class Name: True

Molecule: COc1ccc(Nc2ncc(I)c(NCCCNC(=O)C3CCC3)n2)cc1
Class Name: True

Read the next record carefully.
Hi, just wondering whether C#CCNC1CCC(c2csc(C#C)n2)=C1C (stereo not given) shows TGI of 10 µM or higher.
True

* * *

Measured GI50 values are reported for all entries that follow.
# System: DU-145 prostate
# Assay Overview: NCI tumour cell line growth inhibition, 48 h

For orientation, consider the following solved cases.
Mol Smiles: CN1CCCN(Cc2ccc(C(=O)Nc3cccc(Nc4ccc5cc(O)ccc5n4)c3)cc2C(F)(F)F)CC1
System: DU-145 prostate
GI50: 16.9 µM
//
Mol Smiles: O=c1cc(-c2ccccc2)oc2cc(OCCCCNCc3ccccc3)cc(O)c12
System: DU-145 prostate
GI50: 12.2 µM
//
Mol Smiles: COc1cc(-c2nc3cc(Cl)c(Cl)cc3[nH]2)ccc1OCc1nnc(-c2ccc(Br)cc2)o1
System: DU-145 prostate
GI50: 10.1 µM

Please find the next compound below.
Indicate its recorded GI50; the compound in question is CC1=C(C)C(=O)C(NCCN2CCOCC2)=C(Br)C1=O
12.7 µM

* * *

# System: MDA-MB-468 breast
# Assay Overview: NCI tumour cell line growth inhibition, 48 h
Measured GI50 values are reported for all entries that follow.

For orientation, consider the following solved cases.
Molecule: CC1=C(C)C(=O)C(NCCN2CCOCC2)=C(Br)C1=O
GI50: 222 nM
--
Molecule: COc1cccc(/C=N\NC(=O)c2ccncc2)c1O
GI50: 2320 nM
--
Molecule: COc1cc(OC)c(C(=O)/C=C/c2ccc(C#N)cc2)c(OC)c1
GI50: 1170 nM
--
Molecule: Cc1ccc(-c2cc(C(=O)Nc3ccc(S(=O)(=O)N4CCCCC4)cc3)[nH]n2)c(O)c1
GI50: > 100000 nM
--
Molecule: OCc1ccc(-c2nc(-c3ccc4c(c3)OCO4)c(-c3ccccn3)[nH]2)cc1
GI50: > 25000 nM

Enter recorded GI50 with MDA-MB-468 breast for CC(C)[C@@]12C[C@@H](OC(=O)C3CO3)[C@@](C)(O1)[C@@H]1CC[C@@H](C)[C@H]1[C@@H]2OC(=O)/C=C/c1ccccc1 (stereo partly specified) here.
16900 nM

Enter recorded GI50 with MDA-MB-468 breast for CCN1/C(=C/C(C)=C/c2sc3ccc4ccccc4c3[n+]2CC)Sc2ccc3ccccc3c21 here.
15.6 nM

Enter recorded GI50 with MDA-MB-468 breast for COc1ccc(C2c3ccc4ccccc4c3Oc3ncn(CCCn4ccnc4)c(=N)c32)cc1OC (stereo unspecified) here.
2120 nM

Enter recorded GI50 with MDA-MB-468 breast for CCc1cc2c(c(OCC(F)(F)F)c(C(=O)NC3CCN(C(=O)CO)CC3)n2C)c(=O)n1CC(=O)c1ccccc1 here.
70600 nM

Enter recorded GI50 with MDA-MB-468 breast for CCn1nc(C2CCN(C(=O)CCO)CC2)nc1-c1cnc(N)c(-c2nnc(C(C)(C)C)o2)n1 here.
1280 nM

Enter recorded GI50 with MDA-MB-468 breast for Clc1ccc(-c2cnc3c(-c4ccnc(N5CCNCC5)c4)cnn3c2)cc1 here.
1540 nM

* * *

# Test system: RXF 393 renal
# Assay Overview: NCI tumour cell line growth inhibition, 48 h
Measured GI50 values are reported for all entries that follow.

For orientation, consider the following solved cases.
Mol Smiles: CN1CCCN(Cc2ccc(C(=O)Nc3cccc(Nc4ccc5cc(O)ccc5n4)c3)cc2C(F)(F)F)CC1
Assay Value: 12.5 µM
//
Mol Smiles: CC1=C(C)C(=O)C(NCCN2CCOCC2)=C(Br)C1=O
Assay Value: 12.7 µM
//
Mol Smiles: COc1ccc(N=Nc2c(N)nn3c(N)c(C#N)c(-c4ccccc4)nc23)cc1
Assay Value: 3.17 µM

Indicate its recorded GI50; the compound in question is O=c1cc(-c2ccccc2)oc2cc(OCCCCNCc3ccccc3)cc(O)c12
1.91 µM

* * *

# System: HCT-116 colon
# Assay Overview: NCI tumour cell line growth inhibition, 48 h
Measured TGI values are reported for all entries that follow.
Please give the number followed by its unit.

For orientation, consider the following solved cases.
Mol Smiles: O=c1cc(-c2ccccc2)oc2cc(OCCCCNCc3ccccc3)cc(O)c12
Measured Endpoint: TGI
Assay Value: 17.2 µM

Mol Smiles: COc1cc(-c2nc3cc(Cl)c(Cl)cc3[nH]2)ccc1OCc1nnc(-c2ccc(Br)cc2)o1
Measured Endpoint: TGI
Assay Value: 31.7 µM

Mol Smiles: CN1CCCN(Cc2ccc(C(=O)Nc3cccc(Nc4ccc5cc(O)ccc5n4)c3)cc2C(F)(F)F)CC1
Measured Endpoint: TGI
Assay Value: 22.1 µM

Please find the next molecule below.
Indicate its recorded TGI; the molecule in question is CC1=C(C)C(=O)C(NCCN2CCOCC2)=C(Br)C1=O
10.9 µM

* * *

# Test system: HOP-92 NSCLC
# Assay Overview: NCI tumour cell line growth inhibition, 48 h
Measured Endpoint: GI50

For orientation, consider the following solved cases.
Mol Smiles: O=c1cc(-c2ccccc2)oc2cc(OCCCCNCc3ccccc3)cc(O)c12
Assay Value: 3.73 µM
//
Mol Smiles: CC1=C(C)C(=O)C(NCCN2CCOCC2)=C(Br)C1=O
Assay Value: 13.3 µM
//
Mol Smiles: COc1ccc(N=Nc2c(N)nn3c(N)c(C#N)c(-c4ccccc4)nc23)cc1
Assay Value: 2.65 µM

Indicate its recorded GI50; the compound in question is COc1cc(-c2nc3cc(Cl)c(Cl)cc3[nH]2)ccc1OCc1nnc(-c2ccc(Br)cc2)o1
2.35 µM

* * *

# Test system: A498 renal
# Assay Overview: NCI tumour cell line growth inhibition, 48 h
Measured GI50 values are reported for all entries that follow.

For orientation, consider the following solved cases.
Mol Smiles: COc1cc(-c2nc3cc(Cl)c(Cl)cc3[nH]2)ccc1OCc1nnc(-c2ccc(Br)cc2)o1
Assay Value: 2.9 µM

Mol Smiles: CN1CCCN(Cc2ccc(C(=O)Nc3cccc(Nc4ccc5cc(O)ccc5n4)c3)cc2C(F)(F)F)CC1
Assay Value: 17.6 µM

Mol Smiles: COc1ccc(N=Nc2c(N)nn3c(N)c(C#N)c(-c4ccccc4)nc23)cc1
Assay Value: > 100 µM

Indicate its recorded GI50; the compound in question is CC1=C(C)C(=O)C(NCCN2CCOCC2)=C(Br)C1=O
19.2 µM

* * *

# Tested on: MDA-MB-468 breast
# Assay Overview: NCI tumour cell line growth inhibition, 48 h
Measured Endpoint: TGI (nM)
Use nM as the unit, but write only the number.

For orientation, consider the following solved cases.
Mol Smiles: COC(=O)c1c2c(c(C)[n+]([O-])c1C)C(=O)C(NCc1ccccc1)=CC2=O
U: nM
TGI: 3150
--
Mol Smiles: COc1cc2c(cc1OC)[C@@H]1C(=O)c3ccc4c(c3O[C@@H]1CO2)C[C@H](C(C)C)O4
U: nM
TGI: 867
--
Mol Smiles: CCCCCCOC(=O)CC1=C(C)/C(=C/c2[nH]c(-c3ccc[nH]3)cc2OC)N=C1C
U: nM
TGI: 1430
--
Mol Smiles: Clc1ccc(-c2cnc3c(-c4ccnc(N5CCNCC5)c4)cnn3c2)cc1
U: nM
TGI: 2990

Please find the next molecule below.
Indicate its recorded TGI; the molecule in question is Clc1cc(Br)ccc1-c1ccc(CNCC2CCNCC2)o1
3410

Origin of measurements: PubChem BioAssay (NCI)
